target-entity: Angiotensin II receptor (AT-1) type-1 (Rattus norvegicus) (UniProt P29089+P25095)
experiment: Inhibition of pressor response induced by infusion of angiotensin II in rats, administered perorally
Assay type: functional
// ID50 lookup, one value per entry
recorded-metric: ID50 (mg/kg)

{"smi": "CCCCc1nc(SC)c(C(=O)O)n1Cc1ccc(-c2ccccc2S(=O)(=O)NC(=O)NCC)cc1", "recorded-metric": "ID50", "qualifier-symbol": "=", "assay-result": 1.12}
{"smi": "CCCCc1nc(SCC(F)(F)F)c(C(=O)O)n1Cc1ccc(-c2ccccc2S(=O)(=O)NC(=O)NCCC)cc1", "recorded-metric": "ID50", "qualifier-symbol": "=", "assay-result": 2.28}
{"smi": "CCCCc1nc(Sc2ccccc2)c(C(=O)O)n1Cc1ccc(-c2ccccc2S(=O)(=O)NC(=O)NCCC)cc1", "recorded-metric": "ID50", "qualifier-symbol": ">", "assay-result": 10}
{"smi": "CCCCc1nc(SCSC)c(C(=O)O)n1Cc1ccc(-c2ccccc2S(=O)(=O)NC(=O)NCCC)cc1", "recorded-metric": "ID50", "qualifier-symbol": "=", "assay-result": 2.75}

* * *

target-entity: Angiotensin II receptor (AT-1) type-1 (Rattus norvegicus) (UniProt P29089+P25095)
experiment: Inhibition of pressor response induced by infusion of angiotensin II in rats, administered perorally
Type: functional
Cut-off 3 mg/kg on ID50: below means yes (1), at or above means no (0).

{"smi": "CCCCc1nc(SC)c(C(=O)NCC(=O)O)n1Cc1ccc(-c2ccccc2S(=O)(=O)NC(=O)NCCC)cc1", "assigned-category": "no (0)"}
{"smi": "CCCCc1nc(SC)c(C(=O)O)n1Cc1ccc(-c2ccccc2S(=O)(=O)NC(=O)OCC)cc1", "assigned-category": "yes (1)"}
{"smi": "CCCCc1nc(SCCCO)c(C(=O)O)n1Cc1ccc(-c2ccccc2S(=O)(=O)NC(=O)NCCC)cc1", "assigned-category": "no (0)"}
{"smi": "CCCCc1nc(SC)c(C(=O)O)n1Cc1ccc(-c2ccccc2S(=O)(=O)NC(=O)NC)cc1", "assigned-category": "no (0)"}
{"smi": "CCCCc1nc(SC)c(C(=O)NCC(=O)OC)n1Cc1ccc(-c2ccccc2S(=O)(=O)NC(=O)NCCC)cc1", "assigned-category": "yes (1)"}
{"smi": "CCCCc1nc(SC)c(C(=O)O)n1Cc1ccc(-c2ccccc2S(N)(=O)=O)cc1", "assigned-category": "no (0)"}
{"smi": "CCCCc1nc(SC)c(C(=O)O)n1Cc1ccc(-c2ccccc2S(=O)(=O)NC(C)=O)cc1", "assigned-category": "yes (1)"}

* * *

target-entity: Angiotensin II receptor (AT-1) type-1 (Rattus norvegicus) (UniProt P29089+P25095)
experiment: Inhibition of pressor response induced by infusion of angiotensin II in rats, administered perorally
Type: functional
// ID50 lookup, one value per entry
recorded-metric: ID50 (mg/kg)

{"compound": "CCCCc1nc(SC)c(C(=O)OCC)n1Cc1ccc(-c2ccccc2S(=O)(=O)NC(=O)NCCC)cc1", "recorded-metric": "ID50", "qualifier-symbol": "=", "assay-result": 1.13}
{"compound": "CCCCc1nc(S(C)(=O)=O)c(C(=O)O)n1Cc1ccc(-c2ccccc2S(=O)(=O)NC(=O)NCCC)cc1", "recorded-metric": "ID50", "qualifier-symbol": ">", "assay-result": 10}
{"compound": "CCCCOC(=O)NS(=O)(=O)c1ccccc1-c1ccc(Cn2c(CCCC)nc(SC)c2C(=O)O)cc1", "recorded-metric": "ID50", "qualifier-symbol": "=", "assay-result": 0.6}
{"compound": "CCCCc1nc(SC)c(C(=O)NC(C(=O)O)C(C)CC)n1Cc1ccc(-c2ccccc2S(=O)(=O)NC(=O)NCCC)cc1 (configuration not stated)", "recorded-metric": "ID50", "qualifier-symbol": "=", "assay-result": 2.11}
{"compound": "CCCCc1nc(SCCCCOC(C)=O)c(C(=O)O)n1Cc1ccc(-c2ccccc2S(=O)(=O)NC(=O)NCCC)cc1", "recorded-metric": "ID50", "qualifier-symbol": ">", "assay-result": 10}
{"compound": "CCCCc1nc(SC)c(CO)n1Cc1ccc(-c2ccccc2S(=O)(=O)NC(=O)NCCC)cc1", "recorded-metric": "ID50", "qualifier-symbol": ">", "assay-result": 10}
{"compound": "CCCCc1nc(SCC(F)(F)C(F)(F)CO)c(C(=O)O)n1Cc1ccc(-c2ccccc2S(=O)(=O)NC(=O)NCCC)cc1", "recorded-metric": "ID50", "qualifier-symbol": "=", "assay-result": 5.3}
{"compound": "CCCCNC(=O)NS(=O)(=O)c1ccccc1-c1ccc(Cn2c(CCCC)nc(SC)c2C(=O)O)cc1", "recorded-metric": "ID50", "qualifier-symbol": "=", "assay-result": 0.21}
{"compound": "CCCCc1nc(SC)c(C(=O)O)n1Cc1ccc(-c2ccccc2S(=O)(=O)NC(=O)OCC(C)C)cc1", "recorded-metric": "ID50", "qualifier-symbol": "=", "assay-result": 0.43}
{"compound": "CCCCc1nc(SC)c(C(N)=O)n1Cc1ccc(-c2ccccc2S(=O)(=O)NC(=O)NCCC)cc1", "recorded-metric": "ID50", "qualifier-symbol": "=", "assay-result": 2.83}
{"compound": "CCCCc1nc(SCCCCO)c(C(=O)O)n1Cc1ccc(-c2ccccc2S(=O)(=O)NC(=O)NCCC)cc1", "recorded-metric": "ID50", "qualifier-symbol": "=", "assay-result": 9.81}
{"compound": "C=CCNC(=O)NS(=O)(=O)c1ccccc1-c1ccc(Cn2c(CCCC)nc(SC)c2C(=O)O)cc1", "recorded-metric": "ID50", "qualifier-symbol": "=", "assay-result": 0.57}
{"compound": "CCCCc1nc(SC)c(C(=O)O)n1Cc1ccc(-c2ccccc2S(=O)(=O)NC(=O)CCC)cc1", "recorded-metric": "ID50", "qualifier-symbol": "=", "assay-result": 0.95}
{"compound": "CCCCc1nc(SC)c(C(=O)NC)n1Cc1ccc(-c2ccccc2S(=O)(=O)NC(=O)NCCC)cc1", "recorded-metric": "ID50", "qualifier-symbol": "=", "assay-result": 4.86}
{"compound": "CCCCc1nc(SC)c(C(=O)O)n1Cc1ccc(-c2ccccc2S(=O)(=O)NC(=O)OC)cc1", "recorded-metric": "ID50", "qualifier-symbol": "=", "assay-result": 1.54}
{"compound": "CCCCc1nc(SC)cn1Cc1ccc(-c2ccccc2S(=O)(=O)NC(=O)NCCC)cc1", "recorded-metric": "ID50", "qualifier-symbol": ">", "assay-result": 10}
{"compound": "CCCCc1nc([S+](C)[O-])c(C(=O)O)n1Cc1ccc(-c2ccccc2S(=O)(=O)NC(=O)NCCC)cc1 (configuration not stated)", "recorded-metric": "ID50", "qualifier-symbol": ">", "assay-result": 10}
